Values from patent US11498899B2

- System: foxtail, green (green foxtail, Setaria viridis)
- experimentSummary: Test A preemergence, visual injury rating 0-100
- Type: in vivo
- measurementContext: 125 g ai/ha
Output 1 for records whose Foxtail, Green plant response rating (0 to 100 scale) is lower than 90, 0 for records at or above 90.

• CC1=[N+]([O-])C(C(=O)Nc2cccnc2F)C(c2ccc(C(F)(F)F)cc2)C1 (racemic) = 1
• CC1=[N+]([O-])C(C(=O)Nc2ccccc2[S+](C)[O-])C(c2ccc(C(F)(F)F)cc2)C1 (racemic) = 1
• CC1=[N+]([O-])[C@@H](C(=O)Nc2ccccc2F)[C@H](c2ccc(C(F)(F)F)cc2)C1 (relative stereo) = 0
• O=C(Nc1cccc(F)c1F)C1C(c2ccccc2)CC(C(F)(F)F)=[N+]1[O-] (racemic) = 1
• CC1=[N+]([O-])C(C(=O)Nc2ccncc2C(F)(F)F)C(c2ccc(C(F)(F)F)cc2)C1 (racemic) = 1
• CC1=[N+]([O-])[C@@H](C(=O)Nc2cccc(F)c2F)[C@H](c2cccc(C(F)(F)F)c2)C1 = 0
• CC1=[N+]([O-])C(C(=O)Nc2cccc(F)c2F)C(c2cccc(C#N)c2)C1 (racemic) = 1
• CC1=[N+]([O-])C(C(=O)Nc2cccc(F)c2F)C(c2cccc(Br)c2)C1 (racemic) = 1
• CC1=[N+]([O-])[C@H](C(=O)Nc2cccc(F)c2F)[C@@H](c2ccc(C)cc2)C1 = 0
• CC1=[N+]([O-])C(C(=O)Nc2ccccc2C#N)C(c2ccc(C(F)(F)F)cc2)C1 (racemic) = 1
• CC1=[N+]([O-])[C@@H](C(=O)Nc2cccc(F)c2F)[C@H](c2ccc(F)c(F)c2)C1 = 0
• CC1=[N+]([O-])[C@H](C(=O)Nc2cccc(F)c2F)[C@@H](c2ccc(C(F)(F)F)cc2)C1 = 0
• CC1=[N+]([O-])C(C(=O)Nc2cccc(F)c2F)C(c2ccccc2F)C1 (racemic) = 1
• CC1=[N+]([O-])C(C(=O)Nc2cccc(F)c2F)C(c2ccc(Br)cc2)C1 (racemic) = 1
• CC1=[N+]([O-])C(C(=O)Nc2ccccc2S(C)(=O)=O)C(c2ccc(C(F)(F)F)cc2)C1 (racemic) = 1
• CC1=[N+]([O-])C(C(=O)Nc2ccccc2)C(c2ccc(F)c(F)c2)C1 (racemic) = 1
• CC1=[N+]([O-])C(C(=O)Nc2cccc(F)c2F)C(c2ccccc2)C1 (racemic) = 0
• CC1=[N+]([O-])C(C(=O)Nc2ccc(F)c(F)c2F)C(c2ccc(C(F)(F)F)cc2)C1 (racemic) = 0
• CC1=[N+]([O-])C(C(=O)Nc2cccc(F)c2F)C(c2ccc(C#N)cc2)C1 (racemic) = 1
• CC1=[N+]([O-])C(C(=O)Nc2cccc(F)c2C#N)C(c2ccc(C(F)(F)F)cc2)C1 (racemic) = 1
• CC1=[N+]([O-])C(C(=O)Nc2ccccc2C(F)(F)F)C(c2ccc(C(F)(F)F)cc2)C1 (racemic) = 1
• CSc1ccccc1NC(=O)C1C(c2ccc(C(F)(F)F)cc2)CC(C)=[N+]1[O-] (racemic) = 1
• CC1=[N+]([O-])[C@H](C(=O)Nc2cccc(F)c2F)[C@@H](c2ccc(Cl)cc2)C1 = 0

* * *

Catalogue of compounds with associated Wheat plant response rating
- System: wheat (Triticum aestivum)
- experimentSummary: Test A postemergence, visual injury rating 0-100
- Type: in vivo
- measurementContext: 125 g ai/ha, 0 to 100 scale
measure: Wheat plant response rating

• CC1=[N+]([O-])[C@@H](C(=O)Nc2cccc(F)c2F)[C@H](c2cccc(OC(C)(C)C)c2)C1 = 0
• CC1=[N+]([O-])C(C(=O)Nc2cccc(F)c2F)C(c2cccc(C(C)C)c2)C1 (racemic) = 20
• CC1=[N+]([O-])C(C(=O)Nc2cccc(F)c2F)C(c2ccc(C(F)(F)F)c(Cl)c2)C1 (racemic) = 20
• CC1=[N+]([O-])[C@@H](C(=O)Nc2cccc(F)c2F)[C@H](c2cccc(Oc3ccc(F)cn3)c2)C1 = 0
• CC1=[N+]([O-])C(C(=O)Nc2cccc(F)c2F)C(c2cccc(C(F)(F)F)c2C)C1 (racemic) = 40
• CC1=[N+]([O-])C(C(=O)Nc2cccc(F)c2F)C(c2cccc3c2CCC3)C1 (racemic) = 40
• COc1cccc(C2CC(C)=[N+]([O-])C2C(=O)Nc2cccc(F)c2F)n1 (racemic) = 0
• CC1=[N+]([O-])C(C(=O)Nc2cccc(F)c2F)C(c2c(F)cccc2Cl)C1 (racemic) = 0
• CC1=[N+]([O-])[C@H](C(=O)Nc2cccc(F)c2F)[C@@H](c2ccc(F)c(OC(F)(F)C(F)F)c2)C1 = 50
• CC1=[N+]([O-])[C@H](C(=O)Nc2cccc(F)c2F)[C@@H](c2ccc(C)cc2)C1 [Compound 42] = 80
• CC1=[N+]([O-])C(C(=O)Nc2cccc(F)c2F)C(c2ccc(F)c(Cl)c2)C1 (racemic) = 40
• CC(C)C1=[N+]([O-])C(C(=O)Nc2cccc(F)c2F)C(c2ccc(C(F)(F)F)cc2)C1 (racemic) = 0
• CC1=[N+]([O-])C(C(=O)Nc2cccc(F)c2F)C(c2ccccc2F)C1 (racemic) = 0
• CC1=[N+]([O-])C(C(=O)Nc2ccccc2[S+](C)[O-])C(c2ccc(C(F)(F)F)cc2)C1 (racemic) = 0
• CC1=[N+]([O-])C(C(=O)Nc2cccc(F)c2F)C(c2cc(F)c(F)c(F)c2)C1 (stereo not drawn) = 10
